# measured.on: T1, Rhesus SLC34A2 (Rhesus, UniProt F7HDA3 1-690)
# T1 construct: whole, on cells
# T1 sequence: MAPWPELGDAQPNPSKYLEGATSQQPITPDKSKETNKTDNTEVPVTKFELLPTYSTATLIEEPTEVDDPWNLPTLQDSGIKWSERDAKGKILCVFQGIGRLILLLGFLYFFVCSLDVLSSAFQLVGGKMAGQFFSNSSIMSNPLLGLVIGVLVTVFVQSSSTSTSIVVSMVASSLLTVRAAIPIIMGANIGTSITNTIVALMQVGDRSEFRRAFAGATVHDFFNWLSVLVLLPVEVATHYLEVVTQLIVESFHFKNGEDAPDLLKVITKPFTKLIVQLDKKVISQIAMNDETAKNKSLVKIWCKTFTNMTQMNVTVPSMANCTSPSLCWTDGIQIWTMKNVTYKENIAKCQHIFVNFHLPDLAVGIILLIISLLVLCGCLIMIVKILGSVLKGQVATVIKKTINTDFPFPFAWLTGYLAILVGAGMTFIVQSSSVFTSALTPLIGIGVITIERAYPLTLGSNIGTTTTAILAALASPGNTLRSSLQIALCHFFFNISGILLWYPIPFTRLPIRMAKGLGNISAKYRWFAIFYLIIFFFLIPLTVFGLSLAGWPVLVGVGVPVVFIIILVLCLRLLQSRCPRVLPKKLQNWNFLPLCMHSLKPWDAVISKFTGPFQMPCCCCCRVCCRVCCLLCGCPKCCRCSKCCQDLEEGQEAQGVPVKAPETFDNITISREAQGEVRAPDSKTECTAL
# assay.remarks: FACS, HEK293/Rhesus SLC34A2 cells
parameter: EC50 (nM)

[[record]]
binder = "xi63A11D5B4 hIgG1 (antibody, V domains shown, chimeric, hIgG1) VH: QVQLQQPGAELVKPGASVKMSCRTSGYTFITYNMHWVKQTPGQGREWIGAIYPGNGDTSYNQKFKGKATLTADKSSSTAYMQLNSLTSEDSAVYYCSISTIITTGAVDYWGQGTSVTVAS VL: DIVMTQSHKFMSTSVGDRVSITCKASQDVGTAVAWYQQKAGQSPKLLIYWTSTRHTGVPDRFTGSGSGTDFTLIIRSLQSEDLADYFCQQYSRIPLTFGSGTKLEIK"
parameter = "EC50"
numeric_readout = 2.56

[[record]]
binder = "xi62G10E4G8 hIgG1 (antibody, V domains shown, chimeric, hIgG1) VH: QVQLQQSGAEVVKPGASVKMSCKASGYTFPSYITHWVKQTPGQGLEWIGAIYPGNGDTSYIQKFKGKATLTADKSSSTAYMQLSSLTSEDSAVYYCARGTYGTSAWFTYWGQGTLVTVSA VL: DIVLTQSPATLSVTPGDSVSLSCRARQNIGNNLYWYQQKSHESPRLLIKYASQSISGIPSRFSGSGSGTDFTLTINSVETEDFGVYFCQQSFSWPLTFGAGTKLELK"
parameter = "EC50"
numeric_readout = 2.53

[[record]]
binder = "xi90G10H7 hIgG1 (antibody, V domains shown, chimeric, hIgG1) VH: QVQLQQPGAVLVKPGASVKMSCKASGYTFTSYIIHWVKQTPGQGLEWVGAIYPGNGDASSIQKFKGKATLTVDKSSSTAYMQLSSLTSADSAVYYCARGHYYGSAAWFAYWGQGTLVTVSA VL: DILLTQSPAILSVSPGERVSFSCRASQNIGTGIHWYQQRTNGSLRLLIKYASESISGIPSRFSGSGSGTDFTLSINSVESEDIADYYCQQSNSWPLTFGAGTKLELK"
parameter = "EC50"
numeric_readout = 2.19

[[record]]
binder = "xi78D1B10 hIgG1 (antibody, V domains shown, chimeric, hIgG1) VH: QVQLQQPGADLVKPGASVKLSCKASGFTFTSYIIHWVKQTPGQGLEWIGAIYPGNGDTSYIQKFKGRATLTADKSSTTAYMQLGGLTSEDSAVYYCARGTYGSSAWFVYWGQGTLVTVSA VL: DIVLTQSPATLSVTPGDSVSLSCRASQSISNNLYWYQQKSHESPRLLIKYASQSISGIPSRFRGSGSGTDFTLSINSVETEDFGMYFCQQSNSWPLTFGAGTKLELK"
parameter = "EC50"
numeric_readout = 1.58

